B1: glmS ribozyme (parent)
chain: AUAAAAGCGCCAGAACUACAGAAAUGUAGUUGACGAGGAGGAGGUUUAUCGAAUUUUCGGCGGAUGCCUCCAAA

- Variants of: B1
- assay_method_text: kcat; higher = faster cleavage; RNA array
- test_conditions: with glucosamine-6-phosphate
Fewer inactive variants are shown than the library holds.
measured_quantity: log10 kcat (log10 of the value in s⁻¹)
Scale: decimal log of kcat, kcat in s⁻¹.

Record excerpt, results attached:
variant_annotation	measured_quantity	measured
U31C U47A U56C	log10 kcat	-2.95
C16U A64G	log10 kcat	-1.74
A15U C71A	log10 kcat	-3.16
G29A U46G	log10 kcat	-2.91
A12U	log10 kcat	-1.03

Items follow; give log10 kcat for each.
1. A14G U56G
2. A14G G37C
3. A48G U55A
4. A39G A64G
5. U31C A39C
6. C16A C71G

1. -1.09
2. -4.00
3. -3.97
4. -0.90
5. -2.90
6. -4.20

Entry source: the supplement of paper PMC7125110
